system: AMO-CFZ clone #7 (depleted ABCB1); construct: AMO-1 derived, carfilzomib-adapted, clone 7 ABCB1 depleted by CRISPR/Cas9 (subtotal elimination); test: cells; parameters: species or system AMO-CFZ clones 1 and 7; Cytotoxicity dose-response of myeloma drugs on AMO-CFZ clones with or without ABCB1, IC50; details: ABCB1 depleted clone #7
Property name: IC50 (nM)
The reply should be a number in nM, with the unit left off.

Use the examples below as a reference point.
| Substance smiles | Unit info | Readout value |
| --- | --- | --- |
| Cc1[nH]c2ccccc2c1CCNCc1ccc(/C=C/C(=O)NO)cc1 | nM | 49.5 |
| CC(C)C[C@H](NC(=O)[C@H](Cc1ccccc1)NC(=O)c1cnccn1)B(O)O | nM | 26.8 |

In the following, a different molecule is considered.
Ask | Given the entry CC(C)C[C@H](NC(=O)[C@H](CCc1ccccc1)NC(=O)CN1CCOCC1)C(=O)N[C@@H](Cc1ccccc1)C(=O)N[C@@H](CC(C)C)C(=O)[C@@]1(C)CO1 , what IC50 was observed with AMO-CFZ clone #7 (depleted ABCB1)?
Reply | 78.5

* * *

tested on: AMO-CFZ clone #1 (upregulated ABCB1); construct: AMO-1 derived, carfilzomib-adapted, clone 1 CRISPR/Cas9 clone retaining ABCB1 overexpression; assay: cells; design: species or system AMO-CFZ clones 1 and 7; Cytotoxicity dose-response of myeloma drugs on AMO-CFZ clones with or without ABCB1, IC50; settings: ABCB1 upregulated clone #1
Measured pIC50 of individual entries
Just so you know, pIC50 here is -log10 of the concentration in molar units; reply with that number alone.

| Substance smiles | Measured on | pIC50 |
| --- | --- | --- |
| CC(C)C[C@H](NC(=O)[C@H](CCc1ccccc1)NC(=O)CN1CCOCC1)C(=O)N[C@@H](Cc1ccccc1)C(=O)N[C@@H](CC(C)C)C(=O)[C@@]1(C)CO1 | AMO-CFZ clone #1 (upregulated ABCB1) | 6.21 |
| COC[C@H](NC(=O)c1cnc(C)s1)C(=O)N[C@@H](COC)C(=O)N[C@@H](Cc1ccccc1)C(=O)[C@@]1(C)CO1 | AMO-CFZ clone #1 (upregulated ABCB1) | 5.83 |
| CC(C)C[C@H](NC(=O)CNC(=O)c1cc(Cl)ccc1Cl)B(O)O | AMO-CFZ clone #1 (upregulated ABCB1) | 6.16 |
| Cc1[nH]c2ccccc2c1CCNCc1ccc(/C=C/C(=O)NO)cc1 | AMO-CFZ clone #1 (upregulated ABCB1) | 6.66 |
| C[C@@]12OC(=O)[C@]1([C@@H](O)[C@@H]1C=CCCC1)NC(=O)[C@@H]2CCCl | AMO-CFZ clone #1 (upregulated ABCB1) | 7.21 |
| CC(C)C[C@H](NC(=O)[C@H](Cc1ccccc1)NC(=O)c1cnccn1)B(O)O | AMO-CFZ clone #1 (upregulated ABCB1) | 7.16 |

In the following, a different compound is considered.
Ask | Can you look up the measured pIC50 of CC(C)C[C@H](NC(=O)[C@@H](NC(=O)c1cccc(-c2ccccc2)n1)[C@@H](C)O)B(O)O for me?
Reply | 6.53

* * *

system: AMO-CFZ clone #7 (depleted ABCB1); construct: AMO-1 derived, carfilzomib-adapted, clone 7 ABCB1 depleted by CRISPR/Cas9 (subtotal elimination); assay: cells; parameters: species or system AMO-CFZ clones 1 and 7; Cytotoxicity dose-response of myeloma drugs on AMO-CFZ clones with or without ABCB1, IC50; details: ABCB1 depleted clone #7
Measured IC50 of individual entries
The reply should be a number in nM, with the unit left off.

Use the examples below as a reference point.
| Substance smiles | Unit info | IC50 |
| --- | --- | --- |
| C[C@@]12OC(=O)[C@]1([C@@H](O)[C@@H]1C=CCCC1)NC(=O)[C@@H]2CCCl | nM | 32.9 |
| CC(C)C[C@H](NC(=O)[C@@H](NC(=O)c1cccc(-c2ccccc2)n1)[C@@H](C)O)B(O)O | nM | 80.5 |
| COC[C@H](NC(=O)c1cnc(C)s1)C(=O)N[C@@H](COC)C(=O)N[C@@H](Cc1ccccc1)C(=O)[C@@]1(C)CO1 | nM | 221 |

In the following, a different molecule is considered.
Ask | Given the entry CC(C)C[C@H](NC(=O)CNC(=O)c1cc(Cl)ccc1Cl)B(O)O , what IC50 was observed with AMO-CFZ clone #7 (depleted ABCB1)?
Reply | 345
